target: MAP Kinase (ERK-2 isoform) (Rattus norvegicus, UniProt P63086); construct: polyhistidine (N); host or cells: E. coli; experiment: Kinase Selectivity Assay MAP Kinase (ERK-2); format: biochemical; details: Kinase Selectivity, Tables 2a-2k; read-out: ERK 2 IC50
Sequence (P63086 whole entry, canonical isoform): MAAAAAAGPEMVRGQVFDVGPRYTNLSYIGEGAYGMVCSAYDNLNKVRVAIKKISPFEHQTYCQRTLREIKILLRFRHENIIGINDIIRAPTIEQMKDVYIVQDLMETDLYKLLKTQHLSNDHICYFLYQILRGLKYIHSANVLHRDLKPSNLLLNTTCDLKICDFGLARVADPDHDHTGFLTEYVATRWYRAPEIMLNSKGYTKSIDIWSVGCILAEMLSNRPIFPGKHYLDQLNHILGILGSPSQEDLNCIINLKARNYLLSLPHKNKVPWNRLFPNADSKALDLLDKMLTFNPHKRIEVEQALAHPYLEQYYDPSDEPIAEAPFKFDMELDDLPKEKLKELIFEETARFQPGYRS
METRIC: IC50

>>> print(df.to_string())
                                   compound  experimental_value
0  Cc1ccccc1C(=O)n1nc(Nc2ccc(S(N)(=O)=O)cc2)nc1N [Cpd 57]            > 100 µM
1  CN1CCN(c2ccc(Nc3nc(N)n(C(=O)c4c(F)cccc4F)n3)cc2)CC1 [Cpd 71]            > 100 µM
2  Nc1nc(Nc2ccc(N3CCNC3=O)cc2)nn1C(=O)c1c(F)cccc1F [Cpd 115]             > 10 µM
3  Cc1ccsc1C(=O)n1nc(Nc2ccc(N3CCCS3(=O)=O)cc2)nc1N [Cpd 116]            > 100 µM
4  Cc1ccsc1C(=O)n1nc(Nc2ccc(S(=O)(=O)Nc3ccccn3)cc2)nc1N [Cpd 121]            > 100 µM
5  Cc1cc(C)c(C(=O)n2nc(Nc3ccc(S(=O)(=O)NCCN(C)C)cc3)nc2N)s1 [Cpd 107]             > 10 µM
6  Cc1nc(C)c(C(=O)n2nc(Nc3ccc(S(N)(=O)=O)cc3)nc2N)s1 [Cpd 34]             > 10 µM
7  CCc1ccc(C(=O)n2nc(Nc3ccc(S(=O)(=O)Nc4ccccn4)cc3)nc2N)s1 [Cpd 119]            > 100 µM
8  Cc1ccsc1C(=O)n1nc(Nc2ccc(N3CCNC3=O)cc2)nc1N [Cpd 113]            > 100 µM

----------
Target: VEGF-R (vascular endothelial growth factor receptor-2) (Rattus norvegicus)
Construct: polyhistidine (6xHIS) (N)
Sequence (O08775 786-1343): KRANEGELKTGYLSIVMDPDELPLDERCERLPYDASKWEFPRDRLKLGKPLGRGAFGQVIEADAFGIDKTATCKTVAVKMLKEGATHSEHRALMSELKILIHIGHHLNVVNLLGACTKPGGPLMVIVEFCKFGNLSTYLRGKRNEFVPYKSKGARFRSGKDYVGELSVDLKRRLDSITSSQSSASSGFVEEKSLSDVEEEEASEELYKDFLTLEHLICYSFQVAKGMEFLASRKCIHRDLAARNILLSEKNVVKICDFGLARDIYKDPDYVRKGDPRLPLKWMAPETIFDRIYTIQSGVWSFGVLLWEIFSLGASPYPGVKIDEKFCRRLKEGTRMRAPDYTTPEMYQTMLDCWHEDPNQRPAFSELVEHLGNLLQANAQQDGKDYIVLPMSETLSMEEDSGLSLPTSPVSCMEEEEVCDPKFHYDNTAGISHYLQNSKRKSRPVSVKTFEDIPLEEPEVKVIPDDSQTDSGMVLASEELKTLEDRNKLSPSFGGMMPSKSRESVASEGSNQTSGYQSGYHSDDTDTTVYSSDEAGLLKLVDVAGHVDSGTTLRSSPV
Assay: VEGF-R Screening Assay
Format: biochemical
Settings: Table 1; read-out: VEGF-R IC50
Experimental: 70 μL of the kinase reaction mixture was dispensed into the well of a streptavidin coated FlashPlate™ (Cat. # SMP103, NEN, Boston, Mass.). […] The PLC1 biotinylated peptide substrate became immobilized on the Flashplate™ and the incorporation of ^33P-γ-ATP was measured by reading the plate on a scintillation counter. Inhibition of the enzymatic activity of the VEGF-R was measured by observing a reduced amount of ^33P-γ-ATP incorporated into the immobilized peptide. […]
METRIC: IC50

In [3]: df
Out[3]:
                               smiles_input  experimental_value
0  Cc1cc(C)c(C(=O)n2nc(Nc3ccc(-n4cncn4)cc3)nc2N)s1             ~100 nM
1  Cc1ccc(F)c(C(=O)n2nc(Nc3ccc(NS(C)(=O)=O)cc3)nc2N)c1F              704 nM
2  Cc1ccc(F)c(C(=O)n2nc(Nc3ccc(S(=O)(=O)O)cc3)nc2N)c1F              890 nM

----------
Biological target: Glycogen Synthase Kinase-3 (beta isoform) (Oryctolagus cuniculus)
Construct: purchased New England Biolabs 6040; host or cells: E. coli
Sequence (G1T8E2 1-432): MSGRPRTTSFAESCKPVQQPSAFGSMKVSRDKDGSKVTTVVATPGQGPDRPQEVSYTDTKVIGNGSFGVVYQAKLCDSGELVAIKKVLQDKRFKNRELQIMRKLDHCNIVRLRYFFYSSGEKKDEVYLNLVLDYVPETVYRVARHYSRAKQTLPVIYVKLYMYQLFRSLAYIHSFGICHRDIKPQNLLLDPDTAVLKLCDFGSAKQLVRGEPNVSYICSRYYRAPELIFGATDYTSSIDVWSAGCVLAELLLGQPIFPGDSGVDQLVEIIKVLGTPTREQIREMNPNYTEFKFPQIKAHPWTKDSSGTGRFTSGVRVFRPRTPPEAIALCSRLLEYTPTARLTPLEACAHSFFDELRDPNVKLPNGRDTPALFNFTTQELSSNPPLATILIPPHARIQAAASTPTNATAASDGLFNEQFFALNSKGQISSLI
Assay: Kinase Selectivity Assay Glycogen Synthase Kinase-3
Format: biochemical, rabbit
Details: Kinase Selectivity, Tables 2a-2k; read-out: GSK-3 IC50
Protocol: Assays to test compound inhibition of other kinases were preformed using methods that measure the amount of phosphorylation of a biotinylated peptide substrate. Biotinylated peptide substrates were selected from the literature as appropriate for the enzyme being evaluated. […] The plate was read on a scintillation counter to determine ^33P-γ-ATP incorporated into the immobilized peptide. […] A maximum and minimum signal for the assay was determined on each plate. […]
pIC50: −log10 of the molar value.
METRIC: pIC50

>>> df
                               smiles_input  metric  qualifier  experimental_value
0  Nc1ccc(F)c(C(=O)n2nc(Nc3ccc(S(N)(=O)=O)cc3)nc2N)c1F   pIC50          =                7.40
1  Cc1ccc(F)c(C(=O)n2nc(Nc3ccc(S(N)(=O)=O)cc3)nc2N)c1Cl   pIC50          =                6.83
2  Nc1nc(Nc2ccc(N3CCCS3(=O)=O)cc2)nn1C(=O)c1c(F)cccc1F   pIC50          =                5.98
3  Cc1ccsc1C(=O)n1nc(Nc2ccc(S(=O)(=O)NCCN(C)C)cc2)nc1N   pIC50          =                7.70
4  Cc1nc(C)c(C(=O)n2nc(Nc3ccc(S(N)(=O)=O)cc3)nc2N)s1   pIC50          =                7.82
5  Nc1nc(Nc2cccc(Cl)c2)n(C(=O)c2c(F)cccc2F)n1   pIC50          <                4.00
6  Nc1nc(Nc2ccc(N3CCNC3=O)cc2)nn1C(=O)c1c(F)cccc1F   pIC50          =                6.41

----------
biological target: Casein Kinase 1 (CK1 delta isoform) (Rattus norvegicus, UniProt Q06486); construct: a truncation at amino acid 318 of the C-terminal portion of the rat CK1 delta isoform; assay: Kinase Selectivity Assay Casein Kinase 1; settings: Tables 2a-2k, read-out: Caseine Kinase 1 IC50
Sequence (Q06486 1-317): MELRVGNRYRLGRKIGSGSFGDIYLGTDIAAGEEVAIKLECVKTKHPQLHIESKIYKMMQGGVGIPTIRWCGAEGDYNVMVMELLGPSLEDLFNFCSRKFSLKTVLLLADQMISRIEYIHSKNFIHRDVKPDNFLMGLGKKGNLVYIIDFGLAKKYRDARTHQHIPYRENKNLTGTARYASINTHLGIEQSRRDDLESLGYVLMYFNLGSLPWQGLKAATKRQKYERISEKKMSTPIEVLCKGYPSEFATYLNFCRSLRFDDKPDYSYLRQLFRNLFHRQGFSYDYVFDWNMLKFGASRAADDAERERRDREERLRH
pIC50: −log10 of the molar value.
Let's look at some compounds and their measured pIC50.
METRIC: pIC50

                               smiles_input  experimental_value
0  Cc1ccc(F)c(C(=O)n2nc(N)nc2Nc2ccc(S(N)(=O)=O)cc2)c1F              < 4.00
1  Cc1ccsc1C(=O)n1nc(Nc2ccc(S(=O)(=O)Nc3ccccn3)cc2)nc1N              < 5.00
2  CN1CCN(c2ccc(Nc3nc(N)n(C(=O)c4c(F)cccc4F)n3)cc2)CC1              < 4.00

----------
target: PDGF-R (platelet derived growth factor receptor) beta subunit kinase domain (Homo sapiens); construct: nucleotides 1874-3507 of the human PDGF-R beta subunit kinase domain; polyhistidine (N); assay: Kinase Selectivity Assay PDGF-R; format: biochemical; conditions: Kinase Selectivity, Tables 2a-2k; read-out: PDGF-R kinase IC50
Sequence (P09619 564-1106): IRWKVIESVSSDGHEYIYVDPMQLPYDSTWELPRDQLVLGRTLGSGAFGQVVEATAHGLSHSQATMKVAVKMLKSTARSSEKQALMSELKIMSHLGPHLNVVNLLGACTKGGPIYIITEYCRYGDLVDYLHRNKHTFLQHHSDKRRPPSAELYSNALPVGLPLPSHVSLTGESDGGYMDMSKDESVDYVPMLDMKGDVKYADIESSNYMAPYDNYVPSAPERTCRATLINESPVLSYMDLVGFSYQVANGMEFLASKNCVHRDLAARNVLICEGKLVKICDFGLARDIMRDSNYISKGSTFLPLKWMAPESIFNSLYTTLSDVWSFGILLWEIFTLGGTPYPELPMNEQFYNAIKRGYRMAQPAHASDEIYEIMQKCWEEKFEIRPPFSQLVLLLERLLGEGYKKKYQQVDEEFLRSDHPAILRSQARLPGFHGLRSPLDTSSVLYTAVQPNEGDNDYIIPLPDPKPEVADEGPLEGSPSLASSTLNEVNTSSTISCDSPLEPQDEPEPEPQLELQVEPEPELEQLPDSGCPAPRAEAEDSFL
Let's look at some molecules and their measured log10(IC50).
METRIC: log10(IC50) (log10 of the value in nM)

>>> print(df.to_string())
                                    molecule       metric  experimental_value
 0  Cc1ccc(F)c(C(=O)n2nc(Nc3ccc(N4CCNC4=O)cc3)nc2N)c1F  log10(IC50)                4.14
 1  CC(C)(C)c1ccc(C(=O)n2nc(Nc3ccc(S(N)(=O)=O)cc3)nc2N)s1  log10(IC50)                2.30
 2  Cc1ccsc1C(=O)n1nc(Nc2ccc(S(N)(=O)=O)cc2)nc1N  log10(IC50)                1.90
 3  CCc1ccc(C(=O)n2nc(Nc3ccc(S(=O)(=O)NCCN(C)C)cc3)nc2N)s1  log10(IC50)                2.85
 4  CNS(=O)(=O)c1ccc(Nc2nc(N)n(C(=O)c3sc(C)cc3C)n2)cc1  log10(IC50)                2.05
 5  Nc1nc(Nc2ccc(S(N)(=O)=O)cc2)nn1C(=O)c1sccc1Cl  log10(IC50)                1.91
 6  CCc1ccc(C(=O)n2nc(Nc3ccc(S(N)(=O)=O)cc3)nc2N)s1  log10(IC50)                1.87
 7  Nc1nc(Nc2ccc(S(=O)(=O)N3CCCCC3)cc2)nn1C(=O)c1cccs1  log10(IC50)                2.80
 8  CN1CCN(c2ccc(Nc3nc(N)n(C(=O)c4c(F)cccc4F)n3)cc2)CC1  log10(IC50)                4.43
 9  CCc1ccc(C(=O)n2nc(Nc3ccc(S(=O)(=O)NC)cc3)nc2N)s1  log10(IC50)                2.45
10  CCc1ccc(C(=O)n2nc(Nc3ccc(NS(C)(=O)=O)cc3)nc2N)s1  log10(IC50)                2.45
11  Cc1ccc(F)c(C(=O)n2nc(Nc3ccc(S(N)(=O)=O)cc3)nc2N)c1Cl  log10(IC50)                2.00
12  CC(O)c1ccc(F)c(C(=O)n2nc(Nc3ccc(S(N)(=O)=O)cc3)nc2N)c1F (centres unmarked)  log10(IC50)                3.93
13  Cc1ccsc1C(=O)n1nc(Nc2ccc(S(=O)(=O)NCCN(C)C)cc2)nc1N  log10(IC50)                2.28
14  CNS(=O)(=O)c1ccc(Nc2nc(N)n(C(=O)c3c(F)ccc(C)c3F)n2)cc1  log10(IC50)                3.89
15  Cc1nc(C)c(C(=O)n2nc(Nc3ccc(S(N)(=O)=O)cc3)nc2N)s1  log10(IC50)                2.47
16  Nc1nc(Nc2ccc(S(N)(=O)=O)cc2)nn1C(=O)c1sccc1F  log10(IC50)                2.00
17  Nc1nc(Nc2ccc(S(N)(=O)=O)cc2)n(C(=S)Nc2c(F)cccc2F)n1  log10(IC50)                3.28
18  Cc1cc(C)c(C(=O)n2nc(Nc3ccc(S(=O)(=O)NCCN(C)C)cc3)nc2N)s1  log10(IC50)                2.16
19  Nc1nc(Nc2ccc(S(N)(=O)=O)cc2)nn1C(=O)C1CCCCC1  log10(IC50)                3.60
20  Nc1nc(Nc2ccc(S(N)(=O)=O)cc2)nn1C(=O)c1c(F)cccc1Cl  log10(IC50)                4.21
21  Cc1ccc(F)c(C(=O)n2nc(Nc3ccc(S(=O)(=O)NCCN(C)C)cc3)nc2N)c1F  log10(IC50)                3.34
22  Cc1ccsc1C(=O)n1nc(Nc2ccc(-n3cncn3)cc2)nc1N  log10(IC50)                2.59

Sourced from patent US6924302B2
